# Tested on: A375 (malignant melanoma) cell line
# assay_info: CellTiter-Glo luminescent cell viability assay, A375
# Assay type: cell-based, human
# conditions: Homo sapiens, A-375; A375, compound at 10 μM, 72 h
Lab note: compare viability at 10 µM with 10%, writing Yes if less and No if equal or more.

For orientation, consider the following solved cases.
[
  {
    "compound": "Cn1cc(Nc2nc3ccccc3c(N3CCC(NC(C)(C)C)CC3)c2C#N)cn1 [Compound 3268CN]",
    "tested_system": "A375 (malignant melanoma) cell line",
    "classification": "No"
  },
  {
    "compound": "CN1CCC(NC2CCCN(c3c(C#N)c(NCc4ccc(Cl)cc4)nc4ccccc34)C2)CC1 (centres unmarked) [Compound 3162CN]",
    "tested_system": "A375 (malignant melanoma) cell line",
    "classification": "Yes"
  },
  {
    "compound": "CC(C)(C)NC1CCN(c2c(C#N)c(Nc3ccc(Cl)cc3)nc3ccccc23)CC1 [Compound 3258CN]",
    "tested_system": "A375 (malignant melanoma) cell line",
    "classification": "Yes"
  },
  {
    "compound": "Cc1cc(Nc2nc3ccccc3c(N3CCC(NC(C)(C)C)CC3)c2C#N)ccc1Nc1nccc(C(F)(F)F)n1 [Compound 534CN]",
    "tested_system": "A375 (malignant melanoma) cell line",
    "classification": "Yes"
  },
  {
    "compound": "N#Cc1c(NCc2ccc(Cl)cc2)nc2ccccc2c1N1CCC(NC2CCCC2)C1 (centres unmarked) [Compound 134CN]",
    "tested_system": "A375 (malignant melanoma) cell line",
    "classification": "No"
  }
]

In the following, a different compound is considered.
Input Cc1cccc2c(N3CCC(NC(C)(C)C)CC3)c(C#N)c(NCc3ccc(Cl)cc3)nc12 [Compound 414CN] ; condition: viability at 10 µM strictly below 10%. Does it hold?
Yes

====

Record form. Attribute: viability at 10 µM. Fill in for each entry.
# Test system: A375 (malignant melanoma) cell line
# assay_info: CellTiter-Glo luminescent cell viability assay, A375
# Format: cell-based, human
# conditions: Homo sapiens, A-375; A375, compound at 10 μM, 72 h
Give bare numbers, in %.

[
  {
    "molecule": "CNC1CCN(c2c(C#N)c(NCc3ccc(Cl)cc3)nc3ccccc23)CC1 [Compound 3172CN]",
    "tested_system": "A375 (malignant melanoma) cell line",
    "viability at 10 µM / %": 0.3
  },
  {
    "molecule": "CN1CCN(C2CCCN(c3c(C#N)c(NCc4ccc(Cl)cc4)nc4ccccc34)C2)CC1 (stereo not shown) [Compound 3168CN]",
    "tested_system": "A375 (malignant melanoma) cell line",
    "viability at 10 µM / %": 0.8
  },
  {
    "molecule": "CC(C)(C)NC1CCN(c2c(C#N)c(NCc3cccnc3)nc3ccccc23)CC1 [Compound 3304CN]",
    "tested_system": "A375 (malignant melanoma) cell line",
    "viability at 10 µM / %": 74.4
  },
  {
    "molecule": "CNC1CCN(c2c(C#N)c(NCc3ccc(Cl)cc3)nc3ccccc23)C1 (stereo not shown) [Compound 3192CN]",
    "tested_system": "A375 (malignant melanoma) cell line",
    "viability at 10 µM / %": 0.4
  },
  {
    "molecule": "Cn1ncnc1Nc1nc2ccccc2c(N2CCC(NC(C)(C)C)CC2)c1C#N [Compound 3270CN]",
    "tested_system": "A375 (malignant melanoma) cell line",
    "viability at 10 µM / %": 31
  }
]

Hi, could you look up viability at 10 µM for each item in my list?
1. N#Cc1c(NCc2ccc(Cl)cc2)nc2ccccc2c1N1CCC(N2CCOCC2)C1 (stereo not shown) [Compound 150CN]
2. Cc1ccc(Nc2nc3ccccc3c(N3CCC(NC(C)(C)C)CC3)c2C#N)cc1 [Compound 3248CN]
3. CN1CCN(C2CCN(c3c(C#N)c(NCc4ccc(Cl)cc4)nc4ccccc34)C2)CC1 (stereo not shown) [Compound 3200CN]
4. Cc1nccnc1OC1CCN(c2c(C#N)c(NCc3ccc(Cl)cc3)nc3ccccc23)C1 (stereo not shown) [Compound 3362CN]
5. CC(C)(C)NC1CCN(c2c(C#N)c(NCc3ccccc3)nc3ccccc23)CC1 [Compound 3286CN]
6. N#Cc1c(NCc2ccc(Cl)cc2)nc2ccccc2c1N1CCC(Oc2ccccc2)CC1 [Compound 2940CN]
7. Cc1c(Nc2cccc(Nc3nccc(C(F)(F)F)n3)c2)nc2ccccc2c1N1CCC(NC(C)(C)C)CC1 [Compound 540Me]
8. N#Cc1c(NCc2ccc(Cl)cc2)nc2ccccc2c1N1CCC(Oc2ccncc2)C1 (stereo not shown) [Compound 3344CN]

[96.8, 0.4, 0.3, 68.6, 0.2, 98.3, 0.1, 60.3]

Hi, could you look up viability at 10 µM for each item in my list?
1. CC(C)(C)NC1CCN(c2c(C#N)c(Nc3ccccc3C(F)(F)F)nc3ccccc23)CC1 [Compound 3254CN]
2. Cc1cc(Nc2nc3ccccc3c(N3CCC(NC(C)(C)C)CC3)c2C#N)ccc1F [Compound 3250CN]
3. CC(C)CN(Cc1ccc(Cl)cc1)c1cc(N2CCC(NC(C)(C)C)CC2)c2ccccc2n1

[0.2, 0.3, 0.3]

====

# Tested on: HCT-116 (colorectal carcinoma) cell line
# assay_info: CellTiter-Glo luminescent cell viability assay, HCT-116
# Format: cell-based, human
# conditions: Homo sapiens; HCT-116, compound at 10 μM, 72 h
Where a name gives a salt, the structure may show the parent alone.
Lab note: compare viability at 10 µM with 30%, writing t if less and f if equal or more.

For orientation, consider the following solved cases.
[
  {
    "compound": "N#Cc1c(NCc2ccc(Cl)cc2)nc2ccccc2c1N1CCC(NC2CCOCC2)C1 (stereo not shown) [Compound 136CN]",
    "classification": "t"
  },
  {
    "compound": "N#Cc1c(NCc2ccc(Cl)cc2)nc2ccccc2c1N1CCC(Oc2ccccc2)CC1 [Compound 2940CN]",
    "classification": "f"
  }
]

Input CC(C)(C)NC1CCN(c2c(C#N)c(Nc3cnccn3)nc3ccccc23)CC1 [Compound 3284CN] ; condition: viability at 10 µM strictly below 30%. Does it hold?
t

Input CC(C)(C)NC1CCN(c2c(C#N)c(Nc3ccccc3)nc3ccccc23)CC1 [Compound 3246CN] ; condition: viability at 10 µM strictly below 30%. Does it hold?
t

Input Cc1ccc2c(N3CCC(NC(C)(C)C)CC3)c(C#N)c(NCc3ccc(Cl)cc3)nc2c1 [Compound 416CN] ; condition: viability at 10 µM strictly below 30%. Does it hold?
t

Input COc1ccc(CNc2nc3ccccc3c(N3CCC(NC(C)(C)C)CC3)c2C#N)cc1 [Compound 3290CN] ; condition: viability at 10 µM strictly below 30%. Does it hold?
t

Input CC(C)CN(Cc1ccc(Cl)cc1)c1cc(N2CCC(NC(C)(C)C)CC2)c2ccccc2n1 [Compound 220] ; condition: viability at 10 µM strictly below 30%. Does it hold?
t

Input CC(C)N(Cc1ccc(Cl)cc1)c1cc(N2CCC(NC(C)(C)C)CC2)c2ccccc2n1 [Compound 216, hydrochloride] ; condition: viability at 10 µM strictly below 30%. Does it hold?
t

Input Cc1ccc(OC2CCN(c3c(C#N)c(NCc4ccc(Cl)cc4)nc4ccccc34)C2)cc1 (stereo not shown) [Compound 3332CN] ; condition: viability at 10 µM strictly below 30%. Does it hold?
f

Input N#Cc1c(NCc2ccc(Cl)cc2)nc2ccccc2c1N1CCC(Oc2cccc(F)c2)CC1 [Compound 3228CN] ; condition: viability at 10 µM strictly below 30%. Does it hold?
f

Input N#Cc1c(NCc2ccc(Cl)cc2)nc2ccccc2c1N1CCC(Oc2ccccc2)C1 (stereo not shown) [Compound 3330CN] ; condition: viability at 10 µM strictly below 30%. Does it hold?
f

Input N#Cc1c(NCc2ccc(Cl)cc2)nc2ccccc2c1N1CCC(NC2CCOCC2)CC1 [Compound 3180CN] ; condition: viability at 10 µM strictly below 30%. Does it hold?
t

Input N#Cc1c(NCc2ccc(Cl)cc2)nc2ccccc2c1N1CCCC(N2CCCC2)C1 (stereo not shown) [Compound 176CN] ; condition: viability at 10 µM strictly below 30%. Does it hold?
f

====

# Tested on: Huh7 (hepatocellular carcinoma) cell line
# assay_info: CellTiter-Glo luminescent cell viability assay, Huh7
# Assay type: cell-based, human
# conditions: Homo sapiens, Huh-7; Huh7, compound at 4 μM, 72 h
Where a name gives a salt, the structure may show the parent alone.
Record form. Attribute: viability at 4 µM. Fill in for each entry.
Numbers only, in %.

[
  {
    "compound": "N#Cc1c(NCc2ccc(Cl)cc2)nc2ccccc2c1N1CCC(Oc2ccc(Cl)cc2)CC1 [Compound 3226CN]",
    "units_symbol": "%",
    "viability at 4 µM": 117
  },
  {
    "compound": "Cc1nccnc1OC1CCCN(c2c(C#N)c(NCc3ccc(Cl)cc3)nc3ccccc23)C1 (centres unmarked) [Compound 3328CN]",
    "units_symbol": "%",
    "viability at 4 µM": 125
  },
  {
    "compound": "N#Cc1c(NCc2ccc(Cl)cc2)nc2ccccc2c1N1CCC(Oc2ccncc2)C1 (centres unmarked) [Compound 3344CN]",
    "units_symbol": "%",
    "viability at 4 µM": 50.2
  },
  {
    "compound": "CCN(Cc1ccc(Cl)cc1)c1cc(N2CCC(NC(C)(C)C)CC2)c2ccccc2n1 [Compound 214, hydrochloride]",
    "units_symbol": "%",
    "viability at 4 µM": 43
  },
  {
    "compound": "CC(C)(C)NC1CCN(c2c(F)c(NCc3ccc(F)cc3)nc3ccccc23)CC1 [Compound 240F]",
    "units_symbol": "%",
    "viability at 4 µM": 70.5
  }
]

Hi, could you look up viability at 4 µM for each item in my list?
1. N#Cc1c(NCc2ccc(Cl)cc2)nc2ccccc2c1N1CCC(Oc2ccccc2)C1 (centres unmarked) [Compound 3330CN]
2. CC(C)(C)NC1CCN(c2c(C#N)c(NCc3ccc(C(F)(F)F)cc3)nc3ccccc23)CC1 [Compound 3292CN]

1: 70.6; 2: 10.2

Hi, could you look up viability at 4 µM for each item in my list?
1. CC(C)(C)NC1CCN(c2c(C#N)c(NCc3ccco3)nc3ccccc23)CC1 [Compound 3302CN]
2. CC(C)(C)NC1CCN(c2c(C#N)c(NCc3ccccc3)nc3ccccc23)CC1 [Compound 3286CN]
3. CN1CCC(NC2CCN(c3c(C#N)c(NCc4ccc(Cl)cc4)nc4ccccc34)CC2)CC1 [Compound 3182CN]
4. CNC1CCN(c2c(C#N)c(NCc3ccc(Cl)cc3)nc3ccccc23)CC1 [Compound 3172CN]
5. Cc1ccc2nc(NCc3ccc(Cl)cc3)c(C#N)c(N3CCC(NC(C)(C)C)CC3)c2c1 [Compound 418CN]
6. N#Cc1c(NCc2ccc(Cl)cc2)nc2ccccc2c1N1CCC(Oc2ccc(Cl)cc2)C1 (centres unmarked) [Compound 3336CN]

76.6
75.4
0.6
30.7
50.5
95.6

Hi, could you look up viability at 4 µM for each item in my list?
1. CC(C)(C)NC1CCN(c2c(C#N)c(Nc3ccncn3)nc3ccccc23)CC1 [Compound 3282CN]
2. CC(C)(C)NC1CCN(c2c(C#N)c(NCc3ccc4c(c3)OCO4)nc3ccccc23)CC1 [Compound 3300CN]

1: 97.9; 2: 63.2
